- TEST SYSTEM: Tissue-type plasminogen activator (Homo sapiens, UniProt P00750)
- Sequence (P00750 whole entry): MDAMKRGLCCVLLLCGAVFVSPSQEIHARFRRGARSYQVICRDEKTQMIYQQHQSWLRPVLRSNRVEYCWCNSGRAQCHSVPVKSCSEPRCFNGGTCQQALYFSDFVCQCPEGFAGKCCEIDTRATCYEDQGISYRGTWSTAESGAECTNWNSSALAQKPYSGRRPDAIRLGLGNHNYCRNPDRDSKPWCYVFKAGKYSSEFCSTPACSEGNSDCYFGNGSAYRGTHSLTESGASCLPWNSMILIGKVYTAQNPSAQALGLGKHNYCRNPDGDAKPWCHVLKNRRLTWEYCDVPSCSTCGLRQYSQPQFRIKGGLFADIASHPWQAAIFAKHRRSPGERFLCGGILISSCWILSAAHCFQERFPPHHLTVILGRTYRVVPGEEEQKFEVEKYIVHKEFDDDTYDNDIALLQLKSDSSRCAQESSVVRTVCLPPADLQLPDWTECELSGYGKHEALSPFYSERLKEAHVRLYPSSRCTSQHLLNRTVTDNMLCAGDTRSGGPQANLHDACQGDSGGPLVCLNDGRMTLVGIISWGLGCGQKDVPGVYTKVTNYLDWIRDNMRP
pKi: −log10 of the molar value.
QUANTITY KIND: pKi

Look up pKi: `N=C(N)NC(=O)c1nc(Cl)c(N)nc1N`
< 3.00

Follow-up entry: `NC(N)=Nc1ccc(CNC(=O)NC23CC4CC(CC(C4)C2)C3)cc1`
< 3.00
